The reported numbers originate from ChEMBL document CHEMBL4825729.

target: 5'-3' exonuclease PLD4 (Homo sapiens); assay: Activation of PLD4 (unknown origin) using 3'-dT-MUP as substrate by fluorescence-based screening assay
readout label: pEC50
Value format note: pEC50 is -log10 of concentration (mol/L); just state the number.

Any idea what its pEC50 is? The compound is `Cc1nc(SCC(=O)N2CCC(C)CC2)c2ccsc2n1`
3.94

----------
Molecular target: 5'-3' exonuclease PLD4 (Homo sapiens, UniProt Q96BZ4)
Sequence (Q96BZ4 whole entry): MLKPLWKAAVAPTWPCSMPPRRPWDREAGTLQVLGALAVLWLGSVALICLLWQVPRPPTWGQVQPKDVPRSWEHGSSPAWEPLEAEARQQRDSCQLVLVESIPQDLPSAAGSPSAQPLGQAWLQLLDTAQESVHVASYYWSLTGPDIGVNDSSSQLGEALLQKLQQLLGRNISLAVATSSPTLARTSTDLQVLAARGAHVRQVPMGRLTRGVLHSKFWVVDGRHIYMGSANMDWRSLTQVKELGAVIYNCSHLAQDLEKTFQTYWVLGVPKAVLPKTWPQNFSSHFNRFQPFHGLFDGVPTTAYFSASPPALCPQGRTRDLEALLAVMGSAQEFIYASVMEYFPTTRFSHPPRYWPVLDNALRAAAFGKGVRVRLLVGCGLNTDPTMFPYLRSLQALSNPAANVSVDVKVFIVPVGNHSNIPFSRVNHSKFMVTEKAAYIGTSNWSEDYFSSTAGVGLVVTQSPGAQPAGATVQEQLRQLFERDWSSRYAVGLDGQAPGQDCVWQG
Test: Inhibition of PLD4 (unknown origin) using 3'-dT-nNPP as substrate by fluorescence-based screening assay
readout label: IC50 (µM)
Numbers only; they are read as µM.

> print(dat)
                                 mol.smiles                       experimental.system  measured.value
1  Cc1cc(C)cc(N2CCn3c2nc2c3c(=O)n(CC(=O)O)c(=N)n2C)c1  5'-3' exonuclease PLD4 (Homo sapiens, UniProt Q96BZ4)              19

Moving on to another compound below.
Look up IC50: `Cc1ccc(Cn2c(SCC(=O)O)nc3c2c(=O)n(C)c(=O)n3C)cc1`
128
